Where do the numbers come from? From PubChem BioAssay AID1159580.

assay: chemical genetic growth profiling, strain panel (AID 1159580);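 further: tested at 20 µM; growth read once vehicle control cultures reached saturation at 30 °C; 1 = growth at the plate median or of vehicle wells; lower values mean less growth of the strain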; conditions: S. cerevisiae deletion strains, growth OD, locus YBR009C, strain hhf1, active compounds read low
Among all 5,500 compounds or so, about 2,000 (36%) were called active. About 18% were inconclusive and are not listed. The list shows a part of the results.
outcome.measure: normalized growth
The response must contain the number and no unit.

As a guide, the following entries are already answered.
| compound | normalized growth |
| --- | --- |
| CN1CCc2cc3c(cc2[C@H]1C1OC(=O)c2c1ccc1c2OCO1)OCO3 (some centres undefined) | 0.989 |
| CN(C)CC/C=C1\c2ccccc2Sc2ccc(Cl)cc21 | 0.859 |
| CCN(CC)CCNC(=O)c1cc(Br)c(N)cc1OC | 1.02 |

**Q:** Recall and state the measured normalized growth for CC1=C(CC(=O)O)c2cc(F)ccc2/C1=C\c1ccc(S(C)=O)cc1 (centres undefined) .
**A:** 1.01

**Q:** Supply normalized growth value. Item: CC(C)(O)[C@@H]1[C@H]2OC(=O)[C@@H]1[C@]1(O)C[C@H]3O[C@]34C(=O)O[C@H]2[C@]14C
**A:** 0.998

**Q:** Annotate the compound COc1cc(O)c(C(=O)/C=C/c2ccc(O)c(OC)c2)c(OC)c1 with its measured normalized growth.
**A:** 0.948

**Q:** Return normalized growth for the following compound: C=C1C2CC[C@H]3[C@]4(C)C[C@H](OC5OC(CO)C(OS(=O)(=O)O)C(OS(=O)(=O)O)C5OC(=O)CC(C)C)C[C@@H](C(=O)O)[C@H]4CC[C@]3(C2)[C@H]1O (some centres undefined)
**A:** 1.02

**Q:** Output measured normalized growth for this item: COc1cc(NC(C)CCCN)c2ncccc2c1 (centres undefined)
**A:** 1.07

###

experiment: chemical genetic growth profiling, strain panel (AID 1159580);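 further: tested at 20 µM; growth read once vehicle control cultures reached saturation at 30 °C; 1 = growth at the plate median or of vehicle wells; lower values mean less growth of the strain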; details: S. cerevisiae deletion strains, growth OD, locus YER133W, strain GLC7, active compounds read low
In all, about 5,500 compounds went through this assay and about 2,000 (36%) were called active. Inconclusive results (about 18%) are left out. The list shows a part of the results.
outcome.measure: normalized growth
Note: the reply should be a number with no unit written.

| compound | normalized growth |
| --- | --- |
| Cc1ccc2nc(-c3ccc(Cl)cc3)cn2c1 | 0.923 |

**Q:** In one line, give reported normalized growth of the entry CS(=NC(=O)c1cccc(Cl)c1)c1ccc(OC(=O)c2ccc(Cl)cc2)cc1 (stereo unspecified) .
**A:** 0.95

**Q:** Give the value of normalized growth reported for the following: Nc1ccccc1SCc1c(Cl)cccc1Cl
**A:** 0.821

**Q:** Give the reported value of normalized growth for this record: COc1ccc(/C=C2\CSc3ccc(F)cc3C2=O)cc1
**A:** 0.916

**Q:** Hello, please tell me recorded normalized growth for this one: COc1cc(NC(=S)NNS(=O)(=O)c2ccc(C)cc2)c(OC)cc1Cl
**A:** 0.953

**Q:** Answer with the recorded normalized growth of COc1cc(NC(=S)NC(=O)c2ccccc2)c(OC)cc1Cl only.
**A:** 0.986

###

assay: chemical genetic growth profiling, strain panel (AID 1159580);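 further: tested at 20 µM; growth read once vehicle control cultures reached saturation at 30 °C; 1 = growth at the plate median or of vehicle wells; lower values mean less growth of the strain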; settings: S. cerevisiae deletion strains, growth OD, locus YLR027C, strain aat2, active compounds read low
Among all 5,500 compounds or so, about 2,000 (36%) were called active. Another 18% or so got no clear call; they are omitted. Some of the results follow.
Lab note: cut-off is 1. Strictly less in normalized growth is 1. Exactly 1 or more is 0.

| compound | class.assignment |
| --- | --- |
| NC(=O)c1ccc[n+]([C@@H]2O[C@H](COP(=O)([O-])OP(=O)(O)OC[C@H]3O[C@@H](n4cnc5c(N)ncnc54)[C@H](O)[C@@H]3O)[C@@H](O)[C@H]2O)c1 | 0 |

Let's switch to this compound now.
**Q:** Hello, I'm reviewing records and need to know if normalized growth of CCC(=O)O[C@H]1CCC2C3CCC4=CC(=O)CC[C@]4(C)C3CC[C@@]21C (stereo partly specified) is below 1. Could you check?
**A:** 1
